molecules and their reported GI50
tested on: SK-MEL-28; assay: NCI tumour cell line growth inhibition, 48 h
Activity calls are given as the source filed them. No stated cut-off is given here; in the data, active = GI50 up to about 1.1 µM and inactive = higher.

# example entries with known answers
1. COc1nc(SC)nc2c1cnn2C1OC(C(O)CO)C(OC)C1O (stereo unspecified): > 100 µM (inactive)
2. CC(=O)Oc1ccc2cc(Oc3ccc(Cl)c(Cl)c3)c(=O)oc2c1: 25.3 µM (inactive)
3. CN1CCc2ccccc2C(C(=O)c2ccc3c(c2)OCO3)C1=O (stereo unspecified): > 100 µM (inactive)
4. CCC(C)C(Nc1c2ccccc2nc2c(C(=O)NCCN(C)C)cccc12)C(=O)O (stereo unspecified): 23.6 µM (inactive)
5. CCCCCCCCC[C@@H]1C[C@@H]2CCC3C(C(=O)OCCCCNC(=O)OCc4ccccc4)=C(C)N=C(N1)N32 (stereo partly specified): 3.61 µM (inactive)

GI50 of CC(=O)OCC1OC(OC2CC3C(C)(C)C(OC(C)=O)CC[C@]3(C)C3CCC45CC4(CC[C@H]5C(C)CC(O)C4OC4(C)C)[C@]23C)C(O)C(O)C1O (stereo partly specified) , assay on SK-MEL-28, is 2.03 µM (inactive)

GI50 of "C[C@]12CC[C@H]3[C@@H](CCC4=CC(=O)CC[C@@]43C)[C@@H]1CC[C@@H]2C(=O)COS(=O)(=O)c1ccc(Br)cc1" , assay on SK-MEL-28, is 21 µM (inactive)

GI50 of "COc1ccc(/C(C#N)=C/c2ccc(OC)c(OC)c2)cc1" , assay on SK-MEL-28, is > 100 µM (inactive)

GI50 of "CS(=O)(=O)OCOS(C)(=O)=O" , assay on SK-MEL-28, is > 100 µM (inactive)

GI50 of "N#C/C(=C\N1CCNC1=S)C(=O)c1ccc2ccccc2c1" , assay on SK-MEL-28, is > 100 µM (inactive)

GI50 of "CCN(CC)CCOCCOCC1(c2ccc(Cl)c(Cl)c2)CCCCC1" , assay on SK-MEL-28, is 5.22 µM (inactive)

GI50 of "O=C(NCCN1CCCCC1)c1cccc(I)c1" , assay on SK-MEL-28, is > 100 µM (inactive)

----------
test system: HOP-92; assay: NCI tumour cell line growth inhibition, 48 h
The source made the active and inactive calls. No stated cut-off is given here; in the data, active = GI50 up to about 1.1 µM and inactive = higher.
QUANTITY: GI50

# example entries with known answers
1. [O-][n+]1onc(-c2ccccc2)c1-c1no[n+]([O-])c1-c1c(-c2ccccc2)no[n+]1[O-]: 10.6 µM (inactive)
2. COc1ccc(NC(=O)c2oc3cc(O)ccc3c(=O)c2C)c([N+](=O)[O-])c1: > 100 µM (inactive)
3. O=C(NNC(=O)c1ccc(Cl)cc1NC(=O)C12CC3CC(CC(C3)C1)C2)c1ccc(Cl)cc1: 17.5 µM (inactive)

Recorded GI50 (compound CC(=O)C1CC[C@@H]2[C@H](CC[C@]3(C)[C@@H](O)CC[C@@H]23)[C@H]1C(=O)O (stereo partly specified) ): > 100 µM (inactive)

Recorded GI50 (compound "O=c1/c(=C/c2ccc3c(c2)OCO3)sc2nnc(Cc3ccccc3)n12" ): > 100 µM (inactive)

Recorded GI50 (compound "O=c1c2cc3c(cc2c2cccc4c2n1CCC4)OCO3" ): 55.5 µM (inactive)

----------
system: A549; experiment: NCI tumour cell line growth inhibition, 48 h
Activity calls are given as the source filed them. No stated cut-off is given here; in the data, active = GI50 up to about 1.1 µM and inactive = higher.
The categories you may choose from are T (active), F (inactive)

Please review the entries below; each comes with its answer.
1) C=C(Br)COc1ccc2c(C)cc(=O)oc2c1: F
2) CO/N=C/c1c(-c2ccc(Cl)cc2)c(/C=N/OC)n2c1sc1ccccc12: F
3) Cc1cc(Br)ccc1NC1=CC(=O)C(=O)c2ccccc21: F

Input: Please state the recorded outcome for this molecule: "Cc1noc(NS(=O)(=O)c2ccc(NC(=O)c3ccc4[nH]c5ccccc5c(=O)c4c3)cc2)c1C"
Output: F

Input: Please state the recorded outcome for this molecule: "Cc1cnc(/N=c2\sc(C)cn2-c2ncc(C)s2)s1"
Output: F

Input: Please state the recorded outcome for this molecule: COC(=O)c1cn(CC(O)CCl)nn1 (stereo unspecified)
Output: F

----------
test system: NCI-H226; assay: NCI tumour cell line growth inhibition, 48 h
Activity calls are given as the source filed them. No stated cut-off is given here; in the data, active = GI50 up to about 1.1 µM and inactive = higher.
The categories you may choose from are YES = active, NO = inactive

Please review the entries below; each comes with its answer.
1) Cc1cnc(/N=c2\sc(C)cn2-c2ncc(C)s2)s1: NO
2) Cc1c2ccncc2cc2c1sc1ccncc12: YES
3) Cc1oncc1/N=C1\C=C(O)C(=O)c2ccccc21: NO
4) Cc1cc(S(=O)(=O)Nc2nnc3c(C(F)(F)F)cc(Cl)cn23)c(S)cc1Cl: NO

Input: Please state the recorded outcome for this compound: CN1C/C(=C\c2cccs2)C2=NN(C)C(c3cccs3)C2C1 (centres undefined)
Output: NO

Input: Please state the recorded outcome for this compound: CC(=O)NN(c1ccccc1)C1CCN(c2ccccc2)N1C(C)=O (centres undefined)
Output: NO

Input: Please state the recorded outcome for this compound: "O=C(CCCCCNC(=O)c1ccc(Cl)cc1)NO"
Output: NO

Input: Please state the recorded outcome for this compound: "COC(=O)NNC(c1ccc(Cl)cc1)c1ccc(Cl)cc1"
Output: NO

Input: Please state the recorded outcome for this compound: "CCOS(=O)(=O)c1ccc(-c2c3nc(c(-c4ccc(S(=O)(=O)OCC)cc4)c4ccc([nH]4)c(-c4ccc(S(=O)(=O)OCC)cc4)c4nc(c(-c5ccc(S(=O)(=O)OCC)cc5)c5ccc2[nH]5)C=C4)C=C3)cc1"
Output: NO

Input: Please state the recorded outcome for this compound: "c1ccc([P+](CCCCCCCC[P+](c2ccccc2)(c2ccccc2)c2ccccc2)(c2ccccc2)c2ccccc2)cc1"
Output: NO

Input: Please state the recorded outcome for this compound: "CC(=O)OCc1c(O)nc2c(c1O)-c1ccccc1CC2"
Output: NO

Input: Please state the recorded outcome for this compound: "CN(C)C(=S)/N=c1\ssc(=S)n1C"
Output: NO

Input: Please state the recorded outcome for this compound: "O=C(NCCN1CCCCC1)c1cccc(I)c1"
Output: NO

Input: Please state the recorded outcome for this compound: "Cc1cc(Cc2c(F)c(F)c(Cc3cc(C)no3)c(F)c2F)on1"
Output: NO

Input: Please state the recorded outcome for this compound: O=c1[nH]c2cc([N+](=O)[O-])ccc2nc1/C(=N/Nc1ccccc1)C(O)c1ccccc1Cl (centres undefined)
Output: NO

Input: Please state the recorded outcome for this compound: Oc1ccc2c(c1)CC[N+]1=C2CCC2CCCC21 (centres undefined) [QUINDONIUM BROMIDE]
Output: NO

----------
tested on: DU-145; assay: NCI tumour cell line growth inhibition, 48 h
Active and inactive are the calls of the source. Rule as the data show it: active = GI50 up to about 1.1 µM and inactive = higher.
molecules and their reported GI50

1. Cc1c2ccncc2cc2c1sc1ccncc12: 1.97 µM (inactive)
2. NCCSCC(N)C(=O)O (stereo unspecified): > 90.6 µM (inactive)
3. COC(=O)c1cn(CC(O)CCl)nn1 (stereo unspecified): > 100 µM (inactive)
4. ClCC1(CCl)COC1: > 100 µM (inactive)
5. NC(CSS(=O)(=O)c1ccccc1)C(=O)O (stereo unspecified): > 10 µM (inactive)

Recorded GI50 (molecule "Cn1c2ccccc2c2nc3ccccc3c(Cl)c21" ): > 100 µM (inactive)

----------
tested on: XF498; test: NCI tumour cell line growth inhibition, 48 h
Calls of active or inactive are those of the source. Rule as the data show it: active = GI50 up to about 1.1 µM and inactive = higher.
The categories you may choose from are active, inactive

Please review the entries below; each comes with its answer.
1) Cc1cc(Br)ccc1NC1=CC(=O)C(=O)c2ccccc21: inactive
2) COc1ccc(/C=C2\CCCCC2=O)cc1: inactive
3) CCC1(O)C(=O)OCc2c1cc1n(c2=O)Cc2cc3c(N)cccc3nc2-1 (centres undefined) [RS-9-Aminocamptothecin]: active
4) O=[N+]([O-])c1cccc(C2=NN(c3ccccc3)C3c4ccccc4OCC23)c1 (centres undefined): inactive
5) O=c1ccc2ccc(O)c3c4c(O)ccc5ccc(=O)c(c1c23)c54: inactive
6) O=C(CSc1nnc(Cc2ccccc2)o1)Nc1ccc(Cl)cc1[N+](=O)[O-]: inactive
7) C=C[C@@H](C)[C@]1(C(=O)OC)CCCC12OCCO2: inactive
8) CCCCCCn1c(SCC)c2ccccc2c1-c1nc(F)nc(F)n1: inactive
9) COc1ccc2nc3cc(Cl)ccc3c(Sc3ccc(N)cc3)c2c1: inactive
10) O=C1/C(=C/c2ccccc2)CN(C(=O)Oc2ccc([N+](=O)[O-])cc2)C/C1=C\c1ccccc1: inactive

Input: Please state the recorded outcome for this compound: "O=[N+]([O-])c1ccc2[nH]c3c(-c4ccccc4)nccc3c2c1"
Output: inactive

Input: Please state the recorded outcome for this compound: "CCOC(=O)CNC(SC)=C(C#N)C#N"
Output: inactive

Input: Please state the recorded outcome for this compound: O=c1[nH]c2cc([N+](=O)[O-])ccc2nc1/C(=N/Nc1ccccc1)C(O)c1ccccc1Cl (centres undefined)
Output: inactive

Input: Please state the recorded outcome for this compound: "C[N+](C)([O-])CCOc1cc2c(c3ccccc13)-c1ccccc1C2=O"
Output: inactive
